tested on: IGROV-1; test: NCI tumour cell line growth inhibition, 48 h
Calls of active or inactive are those of the source. No stated cut-off is given here; in the data, active = GI50 up to about 1.1 µM and inactive = higher.
Measured quantity: GI50

Some solved cases for reference:
>>> recorded_value("Cc1ccc(C)c2c1n1c(=O)n(C)c(=O)n21")
"> 100 µM (inactive)"
>>> recorded_value("Nc1ccc(C2=N/C(=C\\c3cccc(N)c3)C(=O)O2)cc1")
"> 100 µM (inactive)"
>>> recorded_value("Clc1ccc(C(Cc2ccccc2)c2c(Cl)nc(N3CCNCC3)nc2Cl)cc1 (stereo unspecified)")
"11.9 µM (inactive)"
>>> recorded_value("CCCN1CC=CCC1")
"> 100 µM (inactive)"
>>> recorded_value("O=C1CSC(c2c[nH]c3ccccc23)N1c1ccc(Cl)cc1 (stereo unspecified)")
"> 100 µM (inactive)"

Now look at this one.
Query :: // GI50 lookup, key: "CC(=O)Oc1ccccc1/C=C/C(=O)/C=C/c1ccccc1OC(C)=O"
Result :: 2 µM (inactive)
